Data origin: paper PMC8694192

system: S. pneumoniae 010010
// assign T if MIC falls strictly below 70 µM, else F (ties count as F)

Q: Strictly below 70 µM in MIC? [H]/N=C(/N)N[C@H]1[C@H](O)[C@@H](O)[C@H](O[C@@H]2O[C@@H](C)[C@](O)(C=O)[C@H]2O[C@@H]2O[C@@H](CO)[C@H](O)[C@@H](O)[C@@H]2NC)[C@@H](N/C(N)=N\[H])[C@@H]1O [Streptomycin, reference compound]
A: T

Q: Strictly below 70 µM in MIC? Cc1c(Nc2nc3c(C(N)=S)c(N)sc3s2)c(=O)n(-c2ccccc2)n1C
A: T

Q: Strictly below 70 µM in MIC? CCn1c(=S)sc2sc(Nc3c(C)n(C)n(-c4ccccc4)c3=O)nc21
A: T

Q: Strictly below 70 µM in MIC? CCOC(=O)c1c(N)sc2sc(Nc3c(C)n(C)n(-c4ccccc4)c3=O)nc12
A: F

Q: Strictly below 70 µM in MIC? Cc1c(Nc2nc3c(s2)sc(=S)n3C)c(=O)n(-c2ccccc2)n1C
A: F

Q: Strictly below 70 µM in MIC? Cc1c(Nc2nc3c(C#N)c(N)sc3s2)c(=O)n(-c2ccccc2)n1C
A: T
